Experiment: reduction of endogenous Shn3 mRNA, dose response, qPCR, Clone20 cells, cherry-pick (AID 743415)
Settings: overnight; series mostly up to 35 µM
Measured potencies and affinities stand elsewhere. Activity calls are given as the source filed them.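 Rule for the calls: active = compounds lowering Shn3 expression whose fitted half-maximal concentration is at most twice the top valid dose; inconclusive = flat partial decrease or an invalid curve fit; inactive = the rest.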
Measure: outcome

1) CCCn1c(C)cc(C(=O)CN2C(=O)c3ccccc3S2(=O)=O)c1C = inactive
2) CCOC(=O)c1oc2ccc(S(=O)(=O)n3nc(-c4ccc(OC)cc4)cc3N)cc2c1C = inactive
3) CC(C)c1nc(SCC(=O)Nc2cccc(C(F)(F)F)c2)c2c(=O)n(C)c(=O)n(C)c2n1 = inactive
4) CNc1ccccc1C(C)(C)c1cc(-c2cccc(OC)c2)no1 = inactive
5) Cc1ccccc1C(=O)N1CCN(c2ccc(NC(=O)CSc3ccc(Cl)cc3)cc2)CC1 = inactive
6) Cc1ccc(-c2nc3ncccc3o2)cc1NC(=O)c1sc2ccccc2c1Cl = inactive
7) COc1ccccc1NC(=O)Cn1cc(C(=O)C2CC2)c2ccccc21 = inactive
8) COCCNc1nc(NCc2ccc(C(C)C)cc2)c2sccc2n1 = inactive
9) CCc1ccccc1NC(=O)COC(=O)c1c(C)nsc1NC = inactive
10) COc1ccc(CC(=O)Nc2ccncc2Cl)cc1 = inactive
11) COc1ccc(NS(=O)(=O)c2ccc(OC)c(N(C)S(=O)(=O)c3ccc(Cl)cc3)c2)cc1 = inactive
12) CCOc1ccc(Cn2nnc(C(=O)Nc3cc(OC)cc(OC)c3)c2N)cc1 = inactive
13) O=C(CSc1c2c(nc3ccc(Cl)cc13)CCCC2)NCc1ccco1 = inactive
14) CCn1cc(CN(C)S(=O)(=O)c2ccc3ccccc3c2)c(C)n1 = inactive
15) O=C(Nc1ccc(N2CCOCC2)cc1)c1ccc(Cl)c(S(=O)(=O)N2CCCC2)c1 = inactive
16) CCN(CC)S(=O)(=O)c1ccc(S(=O)(=O)Nc2c(C)nn(C)c2C)cc1 = inactive
17) COc1ccc(-c2cc(C(F)(F)F)nc(S(C)(=O)=O)n2)cc1 = inactive
18) CC(C)(C)C(=O)Nc1cc2nn(-c3ccccc3)nc2cc1Cl = inactive
19) COc1ccc(OC)c(NC(=O)CN(Cc2ccc(F)cc2)C2CCCCC2)c1 = inactive
20) COc1ccccc1NS(=O)(=O)c1cc(NC(=O)c2ccc(Cl)nc2)ccc1Cl = inactive
21) Cc1nc(NC(C)c2ccccc2)c2oc3ccccc3c2n1 (configuration not stated) = inactive
22) Cc1ccc(NC(=O)c2ccc(Cl)c(N3C(=O)C=CC3=O)c2)cc1 = inactive
